Experiment: qHTS for Inhibitors of human tyrosyl-DNA phosphodiesterase 1 (TDP1): qHTS in cells in absence of CPT; further: nearly all actives have a fitted effect of over 55% in size
Details: DT40 Tdp1-/- hTDP1 cells, no CPT, ATP luminescence, 48 h
Experimental: Human tyrosyl-DNA phosphodiesterase 1 (TDP1) is a novel repair gene, and we propose to use it as a new target for anticancer drug development. […] For the primary screen, Tdp1-/-;hTDP1 cells will be exposed to small molecules in the presence or absence of CPT, and their growth kinetics will be evaluated after 48 hours by measuring ATP activity. […] The hit compounds will then be evaluated in the presence or absence of CPT using Tdp1-/- cells. […]
Hit rate of the full screen: of about 420,000 compounds, about 64,000 (15%) were called active. Another 27% or so got no clear call; they are omitted. The call rests on the fitted dose curve; in most records, active means well fitted inhibition curve with a large enough effect; inconclusive means small, poorly fitted or top-dose-only effect; inactive means flat fitted curve, though single readings scatter. Only a sample is shown.
Assign a class; possible classes are active, inactive

Consider the following illustrative entries.
{"compound": "CCc1ccc(OCC(=O)OC(C)C(=O)NC2CC2)cc1 (centres undefined)", "assigned_class": "inactive"}
{"compound": "O=C(NCc1ccccc1)C1c2ccccc2OCC(=O)N1CCCN1CCOCC1 (centres undefined)", "assigned_class": "inactive"}
{"compound": "CC[C@]1(C(=O)OC)[C@H]2C(=O)N(C)C(=O)[C@H]2[C@H]2CN(C)C(=NCc3ccccc3)N21", "assigned_class": "inactive"}
{"compound": "COc1cccc(NC(C)=[N+](C)CCNS(=O)(=O)c2ccc(Cl)cc2)c1", "assigned_class": "inactive"}
{"compound": "COc1ccc(CCNC(=O)c2cc3cccc4c3n2CC(C)S4)c(OC)c1OC (centres undefined)", "assigned_class": "active"}

What outcome does the record of this test show for CCOc1ccc2nc(NC(=O)c3cc([N+](=O)[O-])ccc3N3CCOCC3)sc2c1 ? active

What outcome does the record of this test show for CCc1ccccc1NC(=S)Nc1cc(OC)c(NC(=O)C(C)C)cc1OC ? inactive

What outcome does the record of this test show for CCSC1=NCCN1C(=O)c1ccc(S(=O)(=O)N(CC)CC)cc1 ? inactive
